Assay: Cytotoxicity activity against human HepG2 cells assessed by CellTiter-Glo luminescent cell viability assay.
Format: toxicity, cell-based
Set-up: assay stage confirmatory assay, source tissue liver
Settings: HepG2 cells, read-out: IC50 relative
Active and inactive are the calls of the source. How the calls were made is not given here.
Please state which outcome applies, choosing from 1 (yes) = active, 0 (no) = inactive

Some solved entries appear below for comparison.
INSERT INTO results (molecule, group_label) VALUES
  ('CN(C)CC#Cc1ccc(OCCCc2sc(N3CCc4cccc(C(=O)Nc5nc6ccccc6s5)c4C3)nc2C(=O)O)c(F)c1 [A-1155463]', '1 (yes)'),
  ('CC(C)c1cnn2c(NCc3ccccc3)cc(NC[C@H]3CCNC[C@@H]3O)nc12', '1 (yes)'),
  ('CC(=O)Nc1ccc(NC(=O)c2c(O)c3sccc3n(Cc3ccccc3)c2=O)cc1', '0 (no)'),
  ('CCN(CC)CCCNC(=O)C1CCN(c2nn3cc(-c4ccc(OC)cc4)nc3s2)CC1', '1 (yes)'),
  ('C[C@@H]1CN(Cc2ccc(F)cc2)CCN1C(=O)COc1ccc(Cl)cc1NC(N)=O [BX 471 FREE BASE]', '1 (yes)'),
  ('O=C(Nc1cc(Oc2cc(F)c(NC(=O)C3(C(=O)Nc4ccc(F)cc4)CC3)cc2F)ccn1)C1CC1 [ALTIRATINIB]', '1 (yes)');

IN: What is the recorded call for this molecule in the test? CCN(CC)c1cc(C)nc(Nc2ccc(NC(=O)C(C)C)cc2)n1
OUT: 1 (yes)

IN: What is the recorded call for this molecule in the test? CN(C)c1ccnc(NCCc2cc(F)cc3c2OCOC3)n1
OUT: 1 (yes)

IN: What is the recorded call for this molecule in the test? CCCc1cnc(NC(=O)CCc2nnc(-c3ccsc3)o2)s1
OUT: 1 (yes)
